- Protocol: Cytotoxicity against African green monkey Vero cells
- Type: cell-based
- Condition Label: chlorocebus sabaeus
Measurement Type: CC50
The number alone won't do; follow it with the unit.

[in] Item under review: `C[C@@H]1CC2=C(C1)[C@@H]([C@@]1(C)C(=O)C[C@H]3[C@@H](C1=O)C3(C)C)[C@H](C)C2=O` . Reported CC50?
[out] 1220 µM
